# assayed.target: Dihydroorotate dehydrogenase (quinone), mitochondrial (Plasmodium falciparum (isolate 3D7)) (UniProt Q08210)
# Sequence (Q08210 whole entry, looked up): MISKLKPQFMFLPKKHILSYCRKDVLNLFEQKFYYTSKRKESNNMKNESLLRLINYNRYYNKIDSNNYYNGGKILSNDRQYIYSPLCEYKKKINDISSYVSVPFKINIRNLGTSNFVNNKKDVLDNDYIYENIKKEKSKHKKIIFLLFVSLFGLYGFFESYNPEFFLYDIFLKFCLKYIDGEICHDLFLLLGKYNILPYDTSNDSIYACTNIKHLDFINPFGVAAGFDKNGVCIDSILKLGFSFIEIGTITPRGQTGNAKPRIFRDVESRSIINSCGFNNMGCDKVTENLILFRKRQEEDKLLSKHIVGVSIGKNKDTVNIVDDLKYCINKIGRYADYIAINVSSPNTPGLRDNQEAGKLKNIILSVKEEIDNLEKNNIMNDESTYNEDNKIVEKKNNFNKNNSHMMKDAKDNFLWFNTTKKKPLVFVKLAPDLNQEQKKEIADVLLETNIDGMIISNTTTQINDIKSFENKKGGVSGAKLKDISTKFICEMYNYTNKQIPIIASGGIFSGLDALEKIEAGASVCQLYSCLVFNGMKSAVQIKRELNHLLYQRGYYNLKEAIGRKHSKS
# assay.details: PfDHODH enzyme inhibitors, primary screen, biochemical, C-terminal His tag, absorbance 600 nm (AID 1175);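 also: recombinant parasite enzyme with a five histidine tag at its C terminus; test concentration not given here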
# assay.conditions: DCIP absorbance 600 nm, higher = more signal, called active from +8 up or from −8 down
Use Yes when the recorded composite z-score is no lower than -0.1; use No when it is lower.

{"columns": ["compound", "assigned.category"],
 "data": [
  ["CC(C)(C)OC(=O)CC[C@@]12N=C(c3ccc(OCCCO)cc3)O[C@@H]1c1ccccc1CN(Cc1ccccc1)C2=O", "Yes"]
]}

## Task Given NCCCCCNC(=O)[C@H]1C[C@H]2C(=O)NCC(=O)N2[C@H]1c1ccc(O)cc1 , state whether its composite z-score is at least -0.1.
## Result Yes

## Task Identify whether the reported composite z-score of the following compound is -0.1 or greater: COCCCNC(=O)[C@@]1(Cc2ccccc2)N=C(c2ccc(OCCCO)cc2)O[C@H]1c1ccccc1N=[N+]=[N-]
## Result Yes

## Task Does CC(C)C[C@@H]1NC(=O)[C@@]23C(=O)N[C@@H](Cc4ccccc4)C2[C@H](C)[C@@]2(C)O[C@H]2C3/C=C/C/C=C\CNC(=O)[C@H](Cc2ccccc2)NC1=O (some centres not stated) have a reported composite z-score of at least -0.1?
## Result Yes

## Task Please tell me: is the compound C=CCN1C(=O)[C@]2(O[C@H](CCn3cc([C@H](O)c4ccccc4)nn3)[C@@H]([Si](C)(C)c3ccc(OC)cc3)[C@@H]2C)c2cc(N3CCOC3=O)ccc21 at or over -0.1 in terms of composite z-score?
## Result No

## Task Does the compound [N-]=[N+]=NCc1ccccc1C[C@@]1(C(=O)NCc2ccccc2)N=C(c2ccc(OCCCO)cc2)O[C@@H]1c1ccccc1 have recorded composite z-score that is -0.1 or more?
## Result No

## Task Determine whether measured composite z-score meets or exceeds -0.1 for O=C1c2ccccc2[C@@]2(Cc3ccccc3N(CC(F)(F)F)C2=O)[C@H](c2ccc(CO)cc2)N1Cc1ccccc1C(F)(F)F
## Result No

---

# assay.details: S. cerevisiae growth modulation with rapamycin, primary screen, strain BY4716, OD600, 96 h (AID 1091); also: test concentration not given here
# assay.conditions: higher = more signal, called active from +8 up or from −8 down
experimental.endpoint: z-score
# respond with the number and nothing more

{"columns": ["compound", "z-score"],
 "data": [
  ["C=CCN1C(=O)[C@@]2(O[C@@H](CCn3cc(CCO)nn3)[C@H]([Si](C)(C)c3ccc(OC)cc3)[C@H]2C)c2cc(N3C(=O)c4cccc5cccc3c45)ccc21", 13.5],
  ["COCCOC(=O)N1C(=O)[C@@]2(c3cc(C#CC4(O)CCCCCC4)ccc31)[C@H](c1ccccc1OCCO)N1[C@H](c3ccccc3)[C@H](c3ccccc3)OC(=O)[C@H]1[C@@H]2C(=O)Nc1nc2ccccc2s1", 3.94],
  ["O=C(NO)[C@]1(Cc2ccccc2)N=C(c2ccc(OCCCO)cc2)O[C@@H]1c1ccccc1", -1.94],
  ["CC(CO)N1C(=O)[C@@H]2C3C(=O)OCCC/C=C\\[C@H]3OC23C=CCN(Cc2ccccc2)C(=O)[C@@H]13 (some centres not stated)", -0.875],
  ["[N-]=[N+]=NCc1ccccc1C[C@@]1(C(=O)NCc2ccccc2)N=C(c2ccc(OCCCO)cc2)O[C@@H]1c1ccccc1", 32.7]
]}

## Task Determine its reported z-score: C=CC[C@]1(C(=O)N2CCCCC2)COC(c2ccc(OCCCO)cc2)=N1
## Result -2.75

## Task Name the recorded z-score of the compound listed here: O=C(O)[C@H]1C[C@H]2C(=O)N[C@@H](Cc3ccccc3)C(=O)N2[C@H]1c1ccc(O)cc1
## Result -0.322

---

# assay.details: modulators of S6 phosphorylation in cells, primary screen, cell-based, A549, cytoblot, luminescence, serum-stimulated (AID 1158);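 also: serum-stimulated A549 lung adenocarcinoma cells; signal is phosphorylated S6 detected by cytoblot immunostaining with HRP secondary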
# assay.conditions: A549 phospho-S6 cytoblot, 5 h, higher = more signal
Entry flag: yes (1) if z-score reaches 1; no (0) if it does not.

{"columns": ["molecule", "assigned.category"],
 "data": [
  ["COC(=O)C1=CC(CCCO)=CC(C2CC2)N(Cc2cc3c(cc2Br)OCO3)C=C1C(=O)OC (configuration not stated)", "no (0)"],
  ["C=CCC(OC(C)=O)[C@@H]1[C@@H](N(Cc2ccc(-c3ccccc3)cc2)C(=O)c2ccc(-c3ccccc3)cc2)c2cc(OCCCO)ccc2N1C(=O)c1ccc(-c2ccccc2)cc1 (some centres not stated)", "no (0)"],
  ["C=C1C=C(Br)C2(OCCCO2)[C@H]2OC12 (some centres not stated)", "no (0)"],
  ["C[N+](C)(C)CCCC[C@@H]1NC(=O)[C@@H]2C[C@H](C(=O)NCCCCCNC(=O)CS)[C@H](c3ccc(O)cc3)N2C1=O", "yes (1)"],
  ["[N-]=[N+]=NCc1ccccc1C[C@]1(C(=O)NCc2ccccc2)N=C(c2ccc(OCCCO)cc2)O[C@H]1c1ccccc1", "yes (1)"]
]}

Shift focus to the following entry.
## Task Please check the record CCCNC(=O)[C@@]1(Sc2ccc(C)cc2)CC(=O)N(Cc2cc(C(F)(F)F)cc(C(F)(F)F)c2)[C@@H]1c1ccc(CO)cc1I and state if its z-score is at or above 1.
## Result yes (1)

---

Measured composite z-score by item
# assayed.target: Dihydroorotate dehydrogenase (quinone), mitochondrial (Plasmodium falciparum (isolate 3D7)) (UniProt Q08210)
# assay.details: PfDHODH enzyme inhibitors, primary screen, biochemical, C-terminal His tag, absorbance 600 nm (AID 1175);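 also: recombinant parasite enzyme with a five histidine tag at its C terminus; test concentration not given here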
# assay.conditions: DCIP absorbance 600 nm, higher = more signal, called active from +8 up or from −8 down
The reply should be a number, written without any unit.

# count of solved cases: 4
{"columns": ["smiles.entry", "experimental.endpoint", "number"],
 "data": [
  ["COc1ccc([Si](C)(C)[C@@H]2[C@@H](CCn3cc([C@H](O)c4ccccc4)nn3)O[C@]3(C(=O)N(C)c4c(Br)cc(C)cc43)[C@H]2C)cc1", "composite z-score", -0.973],
  ["COc1ccc(C#Cc2ccc3c(c2)[C@]2(C(=O)N3)[C@H](c3ccc(O)cc3)N3[C@H](c4ccccc4)[C@H](c4ccccc4)OC(=O)[C@H]3[C@@H]2C(=O)N2CCN(c3ncccn3)CC2)cc1", "composite z-score", 0.848],
  ["COCCOC(=O)N1C(=O)[C@@]2(c3cc(C#CCNC(N)=O)ccc31)[C@H](C(=O)NC[C@H](O)c1ccccc1)[C@H]1C(=O)O[C@H](c3ccccc3)[C@H](c3ccccc3)N1[C@@H]2c1ccc(O)cc1", "composite z-score", -0.263],
  ["COCCOC(=O)N1C(=O)[C@@]2(c3cc(C#CCCO)ccc31)[C@H](c1ccccc1OCCO)N1[C@H](c3ccccc3)[C@H](c3ccccc3)OC(=O)[C@H]1[C@@H]2C(=O)NC[C@H](O)c1ccccc1", "composite z-score", -0.375]
]}

Now take the following molecule into account.
## Task State its composite z-score: COc1ccc([Si](C)(C)[C@@H]2[C@@H](CCn3cc(CCO)nn3)O[C@]3(C(=O)N(Cc4ccc(N5C(=O)c6cccc7cccc5c67)cc4)c4ccccc43)[C@H]2C)cc1
## Result 0.0498

---

# assay.details: HepG2 cell viability effects, profiling panel, calcein-AM fluorescence, 48 h, basal (AID 1164); also: test concentration not given here
# assay.conditions: higher = more signal
experimental.endpoint: z-score
Lab note: write the figure by itself, no unit.

Before answering, review these 2 worked examples.
{"columns": ["smiles.entry", "z-score"],
 "data": [
  ["COCCOC(=O)N1C(=O)[C@@]2(c3cc(C#CC4(O)CCCCCC4)ccc31)[C@H](C(=O)NC[C@H](O)c1ccccc1)[C@H]1C(=O)O[C@H](c3ccccc3)[C@H](c3ccccc3)N1[C@@H]2c1ccccc1OCCO", -1.41],
  ["O=C1O[C@@H](c2ccccc2)[C@@H](c2ccccc2)N2[C@@H](c3ccc(OCCO)cc3)[C@]3(C(=O)Nc4ccc(C#CC5(O)CCCCCC5)cc43)[C@@H](C(=O)NC[C@H](O)c3ccccc3)[C@H]12", 0.394]
]}

For the next question, use this compound.
## Task Give the reported z-score for this compound. CCOC(=O)C[C@H]1[C@H](OC(=O)c2ccc(C(=O)c3ccccc3)cc2)[C@@H](NC(=O)Cc2ccc(OC)cc2)c2cc(OCCCO)ccc2N1C(=O)Cc1ccc(OC)cc1
## Result 0.398

---

# z-score values compiled below
# assayed.target: NADPH oxidase 4 (Homo sapiens) (UniProt Q9NPH5)
# Sequence (Q9NPH5 whole entry, looked up): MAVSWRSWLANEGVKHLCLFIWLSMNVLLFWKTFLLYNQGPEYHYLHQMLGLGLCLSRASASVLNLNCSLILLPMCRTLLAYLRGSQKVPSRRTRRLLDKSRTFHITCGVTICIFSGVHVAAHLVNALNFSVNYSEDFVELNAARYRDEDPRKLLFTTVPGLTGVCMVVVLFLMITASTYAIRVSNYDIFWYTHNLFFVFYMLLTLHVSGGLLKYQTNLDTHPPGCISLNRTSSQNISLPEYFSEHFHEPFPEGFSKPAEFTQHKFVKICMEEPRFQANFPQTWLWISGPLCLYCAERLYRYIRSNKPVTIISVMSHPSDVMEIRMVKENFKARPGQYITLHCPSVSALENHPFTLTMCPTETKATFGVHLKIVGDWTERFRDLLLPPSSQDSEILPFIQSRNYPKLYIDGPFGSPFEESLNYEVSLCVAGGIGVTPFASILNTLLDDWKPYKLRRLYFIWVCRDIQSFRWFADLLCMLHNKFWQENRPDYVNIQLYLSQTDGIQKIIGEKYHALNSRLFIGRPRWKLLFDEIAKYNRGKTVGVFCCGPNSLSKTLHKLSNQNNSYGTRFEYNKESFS
# assay.details: NOX4-dependent H2O2 signal modulators, primary screen, NOX inhibitor project, cell-based, HEK293-NOX4, tetracycline-induced, Amplex Red fluorescence (AID 1160)
# assay.conditions: 45 min, higher = more signal, called active from +8 up or from −8 down
Form rule: numeric answer, no unit written next to it.

# annotated cases, reported z-score shown
{"columns": ["compound", "z-score"],
 "data": [
  ["C=CC[C@]1(C(=O)N2CCCCC2)COC(c2ccc(OCCCO)cc2)=N1", -0.256],
  ["O=C1c2ccccc2C(=O)c2cc([C@H]3Oc4ccccc4S(=O)(=O)N4CCC[C@@H]34)ccc21", -1.18],
  ["C=C(/C(=C/C[C@H](OC(=O)c1ccncc1)c1cccc(OCCO)c1)c1cc(C(=O)OC)ccc1OC)C(C)C", 0.0371],
  ["CCOC(=O)C[C@H]1[C@H](OC(=O)c2ccc(-c3ccccc3)cc2)[C@@H](NC(=O)c2ccccc2)c2cc(OCCCO)ccc2N1C(=O)c1ccccc1", 1.32],
  ["COCCOC(=O)N1C(=O)[C@@]2(c3cc(C#CC4(O)CCCCCC4)ccc31)[C@H](c1ccccc1OCCO)N1[C@H](c3ccccc3)[C@H](c3ccccc3)OC(=O)[C@H]1[C@@H]2C(=O)Nc1nc2ccccc2s1", -0.694],
  ["CCOC(=O)C[C@H]1[C@H](OC(=O)c2ccc(-c3ccccc3)cc2)[C@@H](NC(=O)C2CCCCC2)c2cc(OCCCO)ccc2N1C(=O)c1ccc2ccccc2n1", 1.3]
]}

## Task Write down z-score measured for item C=C[C@H](OC)[C@@H](OC(=O)Nc1ccc(OC)cc1)c1ccc(OC)c(O)c1
## Result -1.92

## Task Tell me z-score reported for CC(C)C(=C=CC[C@@H](O)c1ccc(CO)o1)CCO
## Result 1.64

Source: PubChem BioAssay
